target: human mGlu 5a receptor (Homo sapiens, UniProt P41594); construct: expressed in transfected cells; host or cells: EBNA cells (transient transfection), membrane homogenates; assay: [3H]MPEP competition binding on membranes of EBNA cells transfected with human mGlu 5a receptor; details: competition with [3H]MPEP (2 nM), 1 h at 4° C., EBNA cell membranes
Sequence (P41594 21-1180 isoform P41594-2 limits assumed): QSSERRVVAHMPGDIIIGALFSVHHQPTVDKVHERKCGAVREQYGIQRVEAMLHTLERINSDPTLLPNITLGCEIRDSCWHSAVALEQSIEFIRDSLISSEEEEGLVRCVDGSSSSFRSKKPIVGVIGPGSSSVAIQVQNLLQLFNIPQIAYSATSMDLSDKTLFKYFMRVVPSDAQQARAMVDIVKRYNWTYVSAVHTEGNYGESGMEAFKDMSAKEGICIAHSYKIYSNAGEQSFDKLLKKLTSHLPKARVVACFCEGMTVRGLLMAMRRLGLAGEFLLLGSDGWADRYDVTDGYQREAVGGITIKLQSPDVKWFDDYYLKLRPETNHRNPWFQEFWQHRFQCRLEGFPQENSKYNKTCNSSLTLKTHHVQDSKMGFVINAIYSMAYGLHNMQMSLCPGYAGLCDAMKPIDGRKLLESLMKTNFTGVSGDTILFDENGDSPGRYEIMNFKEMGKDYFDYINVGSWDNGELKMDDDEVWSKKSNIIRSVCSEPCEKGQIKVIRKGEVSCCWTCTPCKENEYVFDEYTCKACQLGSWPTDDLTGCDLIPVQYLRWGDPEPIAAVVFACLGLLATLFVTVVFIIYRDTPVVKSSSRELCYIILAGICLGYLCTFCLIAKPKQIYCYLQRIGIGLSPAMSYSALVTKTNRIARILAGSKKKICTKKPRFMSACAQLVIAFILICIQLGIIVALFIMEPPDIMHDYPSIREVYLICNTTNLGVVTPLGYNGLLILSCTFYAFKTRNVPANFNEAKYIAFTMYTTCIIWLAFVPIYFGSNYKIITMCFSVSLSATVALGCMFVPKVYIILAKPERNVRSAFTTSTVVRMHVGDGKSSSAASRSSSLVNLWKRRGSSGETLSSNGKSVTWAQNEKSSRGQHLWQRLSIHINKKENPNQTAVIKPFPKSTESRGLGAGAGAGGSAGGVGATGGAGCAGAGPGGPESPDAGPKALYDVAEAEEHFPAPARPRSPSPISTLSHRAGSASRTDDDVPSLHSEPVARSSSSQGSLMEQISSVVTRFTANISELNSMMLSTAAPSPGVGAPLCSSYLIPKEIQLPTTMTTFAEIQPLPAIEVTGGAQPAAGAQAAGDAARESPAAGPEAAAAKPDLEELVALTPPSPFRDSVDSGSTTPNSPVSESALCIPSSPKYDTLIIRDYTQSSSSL
Ki values for the compounds below.
measuredAttribute: Ki (nM)

[
  {
    "compound": "Cc1cc(NC(=O)c2cc(-c3ccc(F)cc3)cc(C)n2)ccn1",
    "experimentalValue": 411
  },
  {
    "compound": "Cc1cc(-c2cc(F)cc(F)c2)nc(C(=O)Nc2ccn(C)n2)n1",
    "experimentalValue": 181
  },
  {
    "compound": "Cc1cc(-c2cncc(F)c2)cc(C(=O)Nc2nc(C(F)F)cs2)n1",
    "experimentalValue": 39
  },
  {
    "compound": "Cc1cc(-c2cc(F)cc(F)c2)cc(C(=O)Nc2nc(C)c(F)s2)n1",
    "experimentalValue": 14
  },
  {
    "compound": "Cc1cc(-c2ccc(F)cc2)cc(C(=O)Nc2ccc(F)cn2)n1",
    "experimentalValue": 280
  }
]
